In this section we review reported Organ-to-muscle ratio, liver (mean ± SD) values for a set of compounds.
# Test system: HT-29 excised tumors and tissues
# test details: Ex vivo biodistribution in excised tumors and organs
# Design: species or system mice
# condition info: ex vivo, 24 hours after administration, 1 nmol
// return just the number, without any unit appended

Below, each entry is followed by its recorded Organ-to-muscle ratio, liver (mean ± SD) result.
[[record]]
compound = "CC1(C)C(/C=C/C2=C(Oc3ccc(CCC(=O)NCCCCCCCC(=O)Nc4nnc(S(N)(=O)=O)s4)cc3)C(=C/C=C3/N(CCCCS(=O)(=O)O)c4ccc(S(=O)(=O)O)cc4C3(C)C)/CCC2)=[N+](CCCCS(=O)(=O)[O-])c2ccc(S(=O)(=O)O)cc21 [Reference 1]"
test_system = "HT-29 excised tumors and tissues"
assay_result = 5.7

[[record]]
compound = "CC(=O)NC(CCCCn1cc(CCCC(=O)Nc2nnc(S(N)(=O)=O)s2)nn1)C(=O)NCCOCCOCCNC(=O)CCCCCN1/C(=C/C=C2\\CCCC(/C=C/C3=[N+](CCCCS(=O)(=O)[O-])c4ccc(C(=O)NC[C@H](O)[C@@H](O)[C@H](O)[C@H](O)CO)cc4C3(C)C)=C2Oc2ccc(S(=O)(=O)O)cc2)C(C)(C)c2cc(C(=O)NC[C@H](O)[C@@H](O)[C@H](O)[C@H](O)CO)ccc21 (some centres unmarked) [Reference 2]"
test_system = "HT-29 excised tumors and tissues"
assay_result = 6.2

[[record]]
compound = "CC(CC[N+]1=C(/C=C/C=C/C=C/C=C2/N(CCCCCC(=O)NCCCCCCCC(=O)Nc3nnc(S(N)(=O)=O)s3)c3ccc(C(=O)NC[C@H](O)[C@@H](O)[C@H](O)[C@H](O)CO)cc3C2(C)C)C(C)(C)c2cc(C(=O)NC[C@H](O)[C@@H](O)[C@H](O)[C@H](O)CO)ccc21)S(=O)(=O)[O-] (some centres unmarked)"
test_system = "HT-29 excised tumors and tissues"
assay_result = 3.3


CC(=O)NC(CCCCn1cc(CCCC(=O)Nc2nnc(S(N)(=O)=O)s2)nn1)C(=O)NCCOCCOCCNC(=O)CCCCCN1/C(=C/C=C/C=C/C=C/C2=[N+](CCC(C)S(=O)(=O)[O-])c3ccc(C(=O)NC[C@H](O)[C@@H](O)[C@H](O)[C@H](O)CO)cc3C2(C)C)C(C)(C)c2cc(C(=O)NC[C@H](O)[C@@H](O)[C@H](O)[C@H](O)CO)ccc21 (some centres unmarked) [Reference 3] yielded Organ-to-muscle ratio, liver (mean ± SD) of 3.6

Per the record, CC1(C)C(/C=C/C2=C(Oc3ccc(S(=O)(=O)O)cc3)C(=C/C=C3/N(CCCCCC(=O)NCCCCCCCC(=O)Nc4nnc(S(N)(=O)=O)s4)c4ccc(C(=O)NC[C@H](O)[C@@H](O)[C@H](O)[C@H](O)CO)cc4C3(C)C)/CCC2)=[N+](CCCCS(=O)(=O)[O-])c2ccc(C(=O)NC[C@H](O)[C@@H](O)[C@H](O)[C@H](O)CO)cc21 has Organ-to-muscle ratio, liver (mean ± SD) of 4.2

----------
// values below are reported Organ-to-muscle ratio, kidney (mean ± SD)
# System: HT-29 excised tumors and tissues
# test details: Ex vivo biodistribution in excised tumors and organs
# Design: species or system mice
# condition info: ex vivo, 24 hours after administration, 1 nmol
# Description: The ex vivo biodistribution of the representative compounds 1 and 2 and of the reference compounds (at 1 nmol/mouse) was evaluated in HT-29 excised tumors and tissues at the end of the in vivo OI sessions 24 hours post intravenous administration. […] The fluorescence signal intensity was measured by the IVIS Spectrum system. […] The ratio between the fluorescence signal in the organs and tumor was then calculated to assess the contrast to hind limb muscle (representing the background).
Respond using a number only.

// Organ-to-muscle ratio, kidney (mean ± SD) lookup, molecule = CC(=O)NC(CCCCn1cc(CCCC(=O)Nc2nnc(S(N)(=O)=O)s2)nn1)C(=O)NCCOCCOCCNC(=O)CCCCCN1/C(=C/C=C/C=C/C=C/C2=[N+](CCC(C)S(=O)(=O)[O-])c3ccc(C(=O)NC[C@H](O)[C@@H](O)[C@H](O)[C@H](O)CO)cc3C2(C)C)C(C)(C)c2cc(C(=O)NC[C@H](O)[C@@H](O)[C@H](O)[C@H](O)CO)ccc21 (some centres unmarked) [Reference 3] , result: 15.8

// sample CC(CC[N+]1=C(/C=C/C=C/C=C/C=C2/N(CCCCCC(=O)NCCCCCCCC(=O)Nc3nnc(S(N)(=O)=O)s3)c3ccc(C(=O)NC[C@H](O)[C@@H](O)[C@H](O)[C@H](O)CO)cc3C2(C)C)C(C)(C)c2cc(C(=O)NC[C@H](O)[C@@H](O)[C@H](O)[C@H](O)CO)ccc21)S(=O)(=O)[O-] (some centres unmarked) [Compound 2] , its Organ-to-muscle ratio, kidney (mean ± SD) was 7.1

----------
Measured Organ-to-muscle ratio, stomach (mean ± SD) by item
# Test system: HT-29 excised tumors and tissues
# test details: Ex vivo biodistribution in excised tumors and organs
# Parameters: species or system mice
# condition info: ex vivo, 24 hours after administration, 1 nmol
# Procedure: The ex vivo biodistribution of the representative compounds 1 and 2 and of the reference compounds (at 1 nmol/mouse) was evaluated in HT-29 excised tumors and tissues at the end of the in vivo OI sessions 24 hours post intravenous administration. […] The fluorescence signal intensity was measured by the IVIS Spectrum system. […] The ratio between the fluorescence signal in the organs and tumor was then calculated to assess the contrast to hind limb muscle (representing the background).
Answer with a number only.

[[record]]
molecule = "CC(=O)NC(CCCCn1cc(CCCC(=O)Nc2nnc(S(N)(=O)=O)s2)nn1)C(=O)NCCOCCOCCNC(=O)CCCCCN1/C(=C/C=C/C=C/C=C/C2=[N+](CCC(C)S(=O)(=O)[O-])c3ccc(C(=O)NC[C@H](O)[C@@H](O)[C@H](O)[C@H](O)CO)cc3C2(C)C)C(C)(C)c2cc(C(=O)NC[C@H](O)[C@@H](O)[C@H](O)[C@H](O)CO)ccc21 (some centres unmarked) [Reference 3]"
assay_result = 6.7


Log: HT-29 excised tumors and tissues, molecule CC(CC[N+]1=C(/C=C/C=C/C=C/C=C2/N(CCCCCC(=O)NCCCCCCCC(=O)Nc3nnc(S(N)(=O)=O)s3)c3ccc(C(=O)NC[C@H](O)[C@@H](O)[C@H](O)[C@H](O)CO)cc3C2(C)C)C(C)(C)c2cc(C(=O)NC[C@H](O)[C@@H](O)[C@H](O)[C@H](O)CO)ccc21)S(=O)(=O)[O-] (some centres unmarked) , Organ-to-muscle ratio, stomach (mean ± SD) = 6.8

----------
# Test system: HT-29 excised tumors and tissues
# test details: Ex vivo biodistribution in excised tumors and organs
# Set-up: species or system mice
# condition info: ex vivo, 24 hours after administration, 1 nmol
measured parameter: Organ-to-muscle ratio, stomach (mean ± SD)
Give only the figure.

Sample records with Organ-to-muscle ratio, stomach (mean ± SD):
[[record]]
compound = "CC1(C)C(/C=C/C2=C(Oc3ccc(S(=O)(=O)O)cc3)C(=C/C=C3/N(CCCCCC(=O)NCCCCCCCC(=O)Nc4nnc(S(N)(=O)=O)s4)c4ccc(C(=O)NC[C@H](O)[C@@H](O)[C@H](O)[C@H](O)CO)cc4C3(C)C)/CCC2)=[N+](CCCCS(=O)(=O)[O-])c2ccc(C(=O)NC[C@H](O)[C@@H](O)[C@H](O)[C@H](O)CO)cc21 [Compound 1]"
test_system = "HT-29 excised tumors and tissues"
assay_result = 5.4

[[record]]
compound = "CC1(C)C(/C=C/C2=C(Oc3ccc(CCC(=O)NCCCCCCCC(=O)Nc4nnc(S(N)(=O)=O)s4)cc3)C(=C/C=C3/N(CCCCS(=O)(=O)O)c4ccc(S(=O)(=O)O)cc4C3(C)C)/CCC2)=[N+](CCCCS(=O)(=O)[O-])c2ccc(S(=O)(=O)O)cc21 [Reference 1]"
test_system = "HT-29 excised tumors and tissues"
assay_result = 4.0


Now consider a different compound.
For CC(=O)NC(CCCCn1cc(CCCC(=O)Nc2nnc(S(N)(=O)=O)s2)nn1)C(=O)NCCOCCOCCNC(=O)CCCCCN1/C(=C/C=C2\CCCC(/C=C/C3=[N+](CCCCS(=O)(=O)[O-])c4ccc(C(=O)NC[C@H](O)[C@@H](O)[C@H](O)[C@H](O)CO)cc4C3(C)C)=C2Oc2ccc(S(=O)(=O)O)cc2)C(C)(C)c2cc(C(=O)NC[C@H](O)[C@@H](O)[C@H](O)[C@H](O)CO)ccc21 (stereo partly drawn) [Reference 2] the compound record lists Organ-to-muscle ratio, stomach (mean ± SD) as 6.1
